Below: a set of entries, each annotated with reported Plant response rating, Nutsedge, Yellow.
System: yellow nutsedge (Cyperus esculentus)
Assay: Test B pre-/postemergence plant response
Format: in vivo
Conditions: Postemergence, 31 g ai/ha; 0 to 100 scale (0 no effect, 100 complete control)

{"columns": ["molecule", "Plant response rating, Nutsedge, Yellow"],
 "data": [
  ["CCCCn1c(-c2cccc(Cl)c2)ncc(C(=O)C2=C(O)CCCC2=O)c1=O [Compound 146]", 5],
  ["CCCn1c(-c2cccc(Br)c2)ncc(C(=O)C2=C(O)CCCC2=O)c1=O [Compound 141]", 0],
  ["O=C1CCCC(O)=C1C(=O)c1cnc(-c2ccccc2)n(C2CCSCC2)c1=O [Compound 164]", 40],
  ["CCc1ccccc1-n1c(-c2ccccc2)ncc(C(=O)C2=C(O)CCCC2=O)c1=O [Compound 255]", 10]
]}

---

Test system: barnyardgrass (Echinochloa crus-galli)
Assay: Test A pre-/postemergence plant response
Type: in vivo
Conditions: Postemergence, 500 g ai/ha; 0 to 100 scale, 0 = no effect, 100 = complete control; approx. ten days
property_label: Plant response rating, Barnyardgrass

{"columns": ["record_smiles", "property_label", "meas_value"],
 "data": [
  ["O=C1CCCC(OC(=O)C2CC2)=C1C(=O)c1cnc(-c2ccccc2)n(-c2ccccc2)c1=O", "Plant response rating, Barnyardgrass", 90],
  ["Cc1ccc(F)cc1-n1c(-c2cccc(Cl)c2)ncc(C(=O)C2=C(O)CCCC2=O)c1=O", "Plant response rating, Barnyardgrass", 100],
  ["COCCCn1c(-c2cc(F)cc(F)c2)ncc(C(=O)C2=C(O)CCCC2=O)c1=O", "Plant response rating, Barnyardgrass", 90],
  ["CCn1ncc(C(=O)c2cnc(-c3ccccc3)n(-c3ccccc3)c2=O)c1OS(=O)(=O)c1ccc(C)cc1", "Plant response rating, Barnyardgrass", 60],
  ["CCCCCn1c(-c2ccccc2)ncc(C(=O)C2=C(O)CCCC2=O)c1=O", "Plant response rating, Barnyardgrass", 90],
  ["Cc1cc(C)cc(-n2c(-c3ccccc3)ncc(C(=O)C3=C(O)CCCC3=O)c2=O)c1", "Plant response rating, Barnyardgrass", 100],
  ["Cc1cc(-n2c(-c3ccccc3)ncc(C(=O)C3=C(O)CCCC3=O)c2=O)ccc1F", "Plant response rating, Barnyardgrass", 100],
  ["CCCc1ncc(C(=O)C2=C(O)CCCC2=O)c(=O)n1Cc1cccc(OC(F)(F)F)c1", "Plant response rating, Barnyardgrass", 50],
  ["CCCCc1ncc(C(=O)C2=C(O)CCCC2=O)c(=O)n1-c1ccc(C)cc1", "Plant response rating, Barnyardgrass", 90],
  ["O=C1CCCC(O)=C1C(=O)c1cnc(-c2ccccc2)n(-c2ccccc2F)c1=O", "Plant response rating, Barnyardgrass", 80],
  ["CC(C)CC(=O)OC1=C(C(=O)c2cnc(-c3ccccc3)n(-c3ccccc3)c2=O)C(=O)CCC1", "Plant response rating, Barnyardgrass", 90],
  ["O=C1CCCC(O)=C1C(=O)c1cnc(-c2ccco2)n(-c2ccccc2)c1=O", "Plant response rating, Barnyardgrass", 80],
  ["CCCn1c(-c2cccc(C(F)(F)F)c2)ncc(C(=O)C2=C(O)CCCC2=O)c1=O", "Plant response rating, Barnyardgrass", 100]
]}

---

Test system: morningglory (Ipomoea spp.)
Assay: Test A pre-/postemergence plant response
Assay type: in vivo
Conditions: Preemergence, 500 g ai/ha; 0 to 100 scale, 0 = no effect, 100 = complete control
Excerpt: Seeds of barnyardgrass (Echinochloa crus-galli), large crabgrass (Digitaria sanguinalis), giant foxtail (Setaria faberii), morningglory (Ipomoea spp.), pigweed (Amaranthus retroflexus), velvetleaf (Abutilon theophrasti), wheat (Triticum aestivum) and corn (Zea mays) were planted into a blend of loam soil and sand and treated preemergence with a directed soil spray using test chemicals formulated in a non-phytotoxic solvent mixture which included a surfactant. […]

{"columns": ["molecule", "Plant response rating, Morningglory"],
 "data": [
  ["COc1ccc(-n2c(-c3ccccc3)ncc(C(=O)C3=C(O)CCCC3=O)c2=O)c(OC)c1", 50],
  ["O=C1CCCC(O)=C1C(=O)c1cnc(-c2cc(F)c(F)c(F)c2)n(C2CCCCC2)c1=O", 60],
  ["Cc1cc(-n2c(-c3cccc(F)c3)ncc(C(=O)C3=C(O)CCCC3=O)c2=O)ccc1F", 70],
  ["COc1ccc(-n2c(-c3cccc(F)c3)ncc(C(=O)C3=C(O)CCCC3=O)c2=O)cc1", 70],
  ["COCCOCCn1c(-c2cc(F)cc(F)c2)ncc(C(=O)C2=C(O)CCCC2=O)c1=O", 60],
  ["COCCCn1c(-c2cccc(F)c2)ncc(C(=O)C2=C(O)C3CCC(C3)C2=O)c1=O (stereo not drawn)", 90],
  ["CCn1c(-c2cccc(C)c2)ncc(C(=O)C2=C(O)C3CCC(C3)C2=O)c1=O (stereo not drawn)", 80],
  ["COCCn1c(-c2cccc(C)c2)ncc(C(=O)C2=C(O)C3CCC(C3)C2=O)c1=O (stereo not drawn)", 90],
  ["O=C1CCCC(O)=C1C(=O)c1cnc(-c2cccc(F)c2)n(CCC(F)(F)F)c1=O", 70]
]}

---

Below: a set of entries, each annotated with reported Plant response rating, Barnyardgrass.
Test system: barnyardgrass (Echinochloa crus-galli)
Experiment: Test B flooded paddy test
Format: in vivo
Conditions: Flood (flooded paddy test), 62 g ai/ha; scale of 0 to 100 where 0 is no effect and 100 is complete control; 13 to 15 days
Text: Plant species in the flooded paddy test consisted of rice (Oryza sativa), umbrella sedge (Cyperus difformis), ducksalad (Heteranthera limosa) and barnyardgrass (Echinochloa crus-galli) grown to the 2-leaf stage for testing. […] Treated plants and controls were maintained in a greenhouse for 13 to 15 days, after which time all treated plants were visually evaluated and compared to controls. […]
property_label: Plant response rating, Barnyardgrass

{"columns": ["molecule", "meas_value"],
 "data": [
  ["COCCn1c(-c2cccc(C)c2)ncc(C(=O)C2=C(O)C3CCC(C3)C2=O)c1=O (stereo not shown)", 20],
  ["CC(C)n1c(-c2ccccc2)ncc(C(=O)C2=C(O)CCCC2=O)c1=O", 35],
  ["O=C1CCCC(O)=C1C(=O)c1cnc(-c2cccc(F)c2)n(C2CCCCC2)c1=O", 45],
  ["O=C1CCCC(O)=C1C(=O)c1cnc(-c2ccccc2)n(-c2ccc(F)cc2F)c1=O", 0]
]}

---

Test system: Italian ryegrass (Lolium multiflorum)
Experiment: Test B pre-/postemergence plant response
Format: in vivo
Conditions: Postemergence, 62 g ai/ha; scale 0 (no effect) to 100 (complete control); 13 to 15 days
property_label: Plant response rating, Ryegrass, Italian

{"columns": ["compound", "meas_value"],
 "data": [
  ["Cc1cc(C)cc(-n2c(-c3ccccc3)ncc(C(=O)C3=C(O)CCCC3=O)c2=O)c1 [Compound 33]", 10],
  ["O=C1CCCC(O)=C1C(=O)c1cnc(-c2ccsc2)n(-c2ccccc2)c1=O [Compound 56]", 0],
  ["CCCCc1ncc(C(=O)C2=C(O)CCCC2=O)c(=O)n1-c1cccc(C)c1 [Compound 63]", 0]
]}

---

System: large crabgrass (Digitaria sanguinalis)
Experiment: Test A pre-/postemergence plant response
Assay type: in vivo
Conditions: Postemergence, 500 g ai/ha; 0 to 100 scale, 0 = no effect, 100 = complete control; approx. ten days
Mark satisfied for reported Plant response rating, Crabgrass, Large of 90 or greater; mark not satisfied for anything smaller.

{"columns": ["molecule", "answer_label"],
 "data": [
  ["CCCCn1c(-c2cccc(C)c2)ncc(C(=O)C2=C(O)CCCC2=O)c1=O [Compound 116]", "not satisfied"],
  ["CCn1ncc(C(=O)c2cnc(-c3ccccc3)n(-c3ccccc3)c2=O)c1OS(=O)(=O)c1ccc(C)cc1 [Compound 16]", "not satisfied"],
  ["O=C1CCCC(O)=C1C(=O)c1cnc(-c2ccccc2)n(-c2cccc(F)c2)c1=O [Compound 22]", "not satisfied"],
  ["CCCCCc1ncc(C(=O)C2=C(O)CCCC2=O)c(=O)n1-c1ccccc1 [Compound 78]", "not satisfied"],
  ["O=C1CCCC(O)=C1C(=O)c1cnc(-c2ccccc2)n(-c2cccc(Br)c2)c1=O [Compound 38]", "satisfied"],
  ["CCCc1ncc(C(=O)C2=C(O)CCCC2=O)c(=O)n1Cc1ccc(OC)c(OC)c1 [Compound 84]", "not satisfied"],
  ["O=C1CCCC(O)=C1C(=O)c1cnc(-c2ccccc2Cl)n(-c2ccccc2)c1=O [Compound 35]", "not satisfied"],
  ["O=C1CCCC(O)=C1C(=O)c1cnc(-c2ccc(Cl)s2)n(-c2ccccc2)c1=O [Compound 65]", "not satisfied"],
  ["CCCc1ncc(C(=O)C2=C(O)CCCC2=O)c(=O)n1Cc1cccc(OC)c1 [Compound 104]", "not satisfied"],
  ["O=C1CCCC(O)=C1C(=O)c1cnc(-c2ccccc2Br)n(-c2ccccc2)c1=O [Compound 71]", "not satisfied"],
  ["COCCCn1c(-c2cc(F)cc(F)c2)ncc(C(=O)C2=C(O)CCCC2=O)c1=O [Compound 120]", "satisfied"],
  ["CSc1ncc(C(=O)C2=C(O)CCCC2=O)c(=O)n1-c1ccccc1 [Compound 30]", "not satisfied"]
]}

This collection of values is drawn from patent US8952024B2.
